- measuredOn: Estrogen receptor (Ovis aries, UniProt P49885+Q9TU15)
- testDetails: Irreversible inhibition of [3H]estradiol binding to lamb uterine estrogen receptor
- Type: protein assay
Assign IC50 to each entry below.
Answers are plain numbers, in nM.

[[record]]
molecule = "C[C@]12CC[C@@H]3c4ccc(O)cc4CC[C@H]3[C@@H]1CC[C@@]2(O)CCCNC(=O)CBr"
measuredon = "Estrogen receptor (Ovis aries, UniProt P49885+Q9TU15)"
reportedmeasurement = 53

[[record]]
molecule = "C[C@]12CC[C@@H]3c4ccc(O)cc4CCC3[C@@H]1CC[C@@]2(O)CNC(=O)CBr (single isomer, unassigned)"
measuredon = "Estrogen receptor (Ovis aries, UniProt P49885+Q9TU15)"
reportedmeasurement = 9700

[[record]]
molecule = "C[C@]12CC[C@@H]3c4ccc(O)cc4CC[C@H]3[C@@H]1CC[C@@]2(O)CCNC(=O)CBr"
measuredon = "Estrogen receptor (Ovis aries, UniProt P49885+Q9TU15)"
reportedmeasurement = 1600


From here, focus on the item given below.
[ask] Which value of IC50 has been reported for C[C@]12CC[C@@H]3c4ccc(O)cc4CC[C@H]3[C@@H]1CC[C@@]2(O)CCCNC(=O)CI in the records?
[reply] 18
